# Tested on: HepG2
# Experimental details: cytotoxicity call (relative viability < 0.9)
# Test conditions: 10 µM
The whole screen tested about 39,000 compounds, of which about 3,300 (8.5%) were called active. The list comes from a sample in which actives are over-represented; it also holds close analogues and randomly drawn compounds.
Please answer using one outcome listed in true (1) = active, false (0) = inactive

Answered cases to consult:
* Cc1noc(C)c1NC(=O)Nc1ccc2c(c1)C(=O)N([C@H](C)CO)C[C@@H](C)[C@H](CN(C)C(=O)C1CCCCC1)OCCCC[C@@H](C)O2 | false (0)
* C[C@@H]1CN([C@H](C)CO)C(=O)Cc2cc(NC(=O)Nc3ccc(C(F)(F)F)cc3)ccc2O[C@@H]1CN(C)Cc1ccncc1 | true (1)

GET /call?item= C[C@H](CO)N1C[C@H](C)[C@@H](CN(C)Cc2ccncc2)Oc2ccc(NC(=O)Nc3ccc(C(F)(F)F)cc3)cc2CC1=O returns the recorded outcome of this test.
true (1)

Call for entry C[C@H]1CN([C@@H](C)CO)C(=O)Cc2cc(NC(=O)Nc3ccc(C(F)(F)F)cc3)ccc2O[C@@H]1CN(C)Cc1ccncc1 :
true (1)

Test call for this compound, please: Cc1noc(C)c1NC(=O)N(C)C[C@H]1OCCCC[C@H](C)Oc2ccc(NC(=O)CCC(F)(F)F)cc2C(=O)N([C@H](C)CO)C[C@@H]1C
false (0)

Identify the outcome logged in this assay for the compound shown: C[C@@H]1CN([C@@H](C)CO)C(=O)Cc2cc(NC(=O)Nc3ccc(C(F)(F)F)cc3)ccc2O[C@H]1CN(C)Cc1ccncc1
false (0)

Given C[C@@H]1CN([C@H](C)CO)C(=O)Cc2cc(NC(=O)Nc3ccc(C(F)(F)F)cc3)ccc2O[C@H]1CN(C)Cc1ccncc1 , state the outcome it received in this test.
false (0)

* * *

# Test system: HepG2
# Experimental details: cytotoxicity call (relative viability < 0.9)
# Test conditions: 10 µM
The whole screen tested about 39,000 compounds, of which about 3,300 (8.5%) were called active. This is one part of a sample in which actives are shown more often than they occur.
Metric: cytotoxicity call

• C[C@H](CO)N1C[C@H](C)[C@H](CN(C)S(=O)(=O)c2cn(C)cn2)Oc2ccc(NC(=O)NC3CCCCC3)cc2CC1=O = inactive
• CCc1nc2ccc(C(=O)NC3CCN(Cc4ccccc4)CC3)cn2c1N(C)Cc1cc2ccccc2s1 = active
• Cc1ccc(S(=O)(=O)Nc2ccc3c(c2)C(=O)N([C@H](C)CO)C[C@H](C)[C@@H](CN(C)Cc2ccc(C(F)(F)F)cc2)OCCCC[C@@H](C)O3)cc1 = inactive
• CC(C)CC#Cc1cnc2c(c1)C(=O)N([C@H](C)CO)C[C@H](C)[C@H](CN(C)S(=O)(=O)c1cn(C)cn1)O2 = inactive

Please state cytotoxicity call for every compound in the list that follows.
1. CCc1nc2ccc(C(=O)Nc3cccc(OCC(=O)N(C)C)c3)cn2c1N(C)Cc1cc2ccccc2s1
2. COc1ccc(NC(=O)Nc2ccc3c(c2)[C@@H]2C[C@@H](CC(=O)NCC(F)(F)F)O[C@@H](CO)[C@@H]2O3)cc1

inactive
inactive

* * *

# Tested on: HepG2
# Experimental details: cytotoxicity call (relative viability < 0.9)
# Test conditions: 10 µM
In all, about 39,000 compounds went through this assay and about 3,300 (8.5%) were called active. What follows is part of a selection rich in actives, with near analogues and random picks from the rest.
Metric: cytotoxicity call

Consider the following illustrative entries.
• COCC#Cc1ccc2c(c1)O[C@H](CN(C)S(=O)(=O)c1ccc(C)cc1)[C@@H](C)CN([C@H](C)CO)S2(=O)=O = inactive
• O=C1C(O)=C(O)C(=O)C(O)=C1O = active
• Nc1ncnc2c1CCC2 = inactive
• C[C@@H]1CCCCO[C@@H](CN(C)S(=O)(=O)c2cccs2)[C@@H](C)CN([C@@H](C)CO)C(=O)c2cc(NC(=O)Nc3ccc(C(F)(F)F)cc3)ccc2O1 = inactive
• COc1ccc(NC(=O)Nc2ccc3c(c2)C(=O)N([C@@H](C)CO)C[C@H](C)[C@H](CN(C)S(=O)(=O)c2ccc(OC)cc2)OCCCC[C@@H](C)O3)cc1 = inactive
• COc1ccc(NC(=O)Nc2ccc3c(c2)C(=O)N([C@@H](C)CO)C[C@@H](C)[C@@H](CN(C)S(=O)(=O)c2ccc(OC)cc2)OCCCC[C@@H](C)O3)cc1 = inactive
• COc1ccc(NC(=O)Nc2ccc3c(c2)C(=O)N([C@@H](C)CO)C[C@@H](C)[C@H](CN(C)S(=O)(=O)c2ccccc2)OCCCC[C@@H](C)O3)cc1 = inactive
• CC(C)NC(=O)Nc1cccc2c1O[C@@H](CN(C)C(=O)Nc1ccc3c(c1)OCO3)[C@@H](C)CN([C@@H](C)CO)C2=O = inactive

// batch mode: one cytotoxicity call value per listed entry
1. COc1ccc(CN(C)C[C@H]2OCCCC[C@H](C)Oc3ccc(NC(=O)CCC(F)(F)F)cc3C(=O)N([C@@H](C)CO)C[C@H]2C)cc1
2. COc1ccc(NC(=O)Nc2ccc3c(c2)C(=O)N([C@H](C)CO)C[C@@H](C)[C@H](CN(C)S(=O)(=O)c2ccccc2)OCCCC[C@H](C)O3)cc1
3. O=C(C[C@@H]1CC[C@@H](NC(=O)Cc2ccccn2)[C@@H](CO)O1)NCCc1ccncc1
4. C[C@H]1CCCCO[C@@H](CN(C)Cc2ccc(C(F)(F)F)cc2)[C@@H](C)CN([C@@H](C)CO)C(=O)c2cc(NC(=O)CCC(F)(F)F)ccc2O1

1: inactive; 2: active; 3: inactive; 4: active

Hi team, please reply with cytotoxicity call for each item in this list.
1. COc1ccc(NC(=O)Nc2ccc3c(c2)C(=O)N([C@H](C)CO)C[C@H](C)[C@H](CN(C)S(=O)(=O)c2ccc(C)cc2)OCCCC[C@@H](C)O3)cc1
2. Cc1noc(C)c1NC(=O)Nc1ccc2c(c1)C(=O)N([C@H](C)CO)C[C@H](C)[C@H](CN(C)Cc1ccc3c(c1)OCO3)OCCCC[C@@H](C)O2

["inactive", "inactive"]
